# System: HCC-2998 colon
# EXPERIMENT: NCI tumour cell line growth inhibition, 48 h; in the data active = GI50 below about 0.43 µM; inactive = the rest
Outcomes: yes = active, no = inactive

COMPOUND	SYSTEM NAME	GROUP LABEL
CCc1c(C)[nH]c(/C=C2\N=C(c3ccc[nH]3)C=C2OC)c1C	HCC-2998 colon	no
COc1cc2cc(Oc3ccc(NC(=O)Nc4ccc(Cl)c(C(F)(F)F)c4)cc3)c(C)nc2cc1OCCN1CCCCC1	HCC-2998 colon	no
C[C@]12CC[C@H]3[C@@H](CCC4=CC(=O)CC[C@@H]43)[C@@H]1CC[C@@H]2OC(=O)N(CCCl)N=O	HCC-2998 colon	no
Cc1ccc2[nH]c(C(=O)NN3C(=O)CSC34CCCCC4C)c(-c3ccccc3)c2c1 (stereo not given)	HCC-2998 colon	no
CCN1C(=O)N(CC)C2C1NN=c1s/c(=C3\C(=O)N(C(C)C)c4ccccc43)c(=O)n12 (stereo not given)	HCC-2998 colon	yes
CC12CCC=CC1CCC1C2CCC2(C)C(c3ccc(=O)oc3)CCC12O (stereo not given)	HCC-2998 colon	yes
Fc1ccc2[nH]cc(Cc3c[nH]c4ccc(F)cc34)c2c1	HCC-2998 colon	no
COc1ccc(Cn2nc(-c3cc(OC)c(OC)c(OC)c3)c3c2CCc2cnoc2-3)cc1OC	HCC-2998 colon	no
COc1ccc2c(c1)CCC1C2CCC2(C)C1CCC2(O)CNC(=O)CCCCC1CCSS1 (stereo not given)	HCC-2998 colon	no
CSc1nnc(CCSc2ccnc3c(C(F)(F)F)cccc23)o1	HCC-2998 colon	no

* * *

# System: MCF7 breast
# EXPERIMENT: NCI tumour cell line growth inhibition, 48 h
*1 amine or outer side, *2 acyl side, *3 side chain or, on linkers, in order; H or OH if unused. Where a SMILES comes first, the peptide text is derived from it. Bridges are numbered along the chain shown (N, C = ends). [ ]: non-standard residue; d: D form. The star is where a group is joined. X38 = CC[C@H](C)[C@@H](N[*:1])[C@@H](O)CC(=O)[*:2]; NMeY = CN[C@@H](Cc1ccc(O)cc1)C(=O)O; dNMeL = CN[C@H](CC(C)C)C(=O)O; Hiv = CC(C)[C@H](O)C(=O)O; Pyruvoyl = CC(=O)C(=O)*
QUANTITY NAME: log10 TGI (log10 of the value in µM)

MOLECULE	READOUT NUMBER
COc1ccc(C(=O)/C=C/c2ccc(Cl)cc2)cc1S(=O)(=O)Nc1c(N)nc(SC)[nH]c1=O	0.92
CC12CCC(=O)C(O1)C1C(=O)c3cc4ccccc4cc3C(=O)C12 (stereo not drawn)	1.52
CC1Oc2cc3c(-c4c(O)cc(O)c5c(O)c6c(cc45)OC(C)C(C)C6=O)c(O)cc(O)c3c(O)c2C(=O)C1C (stereo not drawn)	0.57
N=C(N)c1nn(C2OC(CO)C(O)C2O)c2nc[nH]c(=O)c12 (stereo not drawn)	0.71
CCCN(Cc1ccc(F)cc1)c1ccc(CO)c(Cl)c1	1.11
C=C(c1ccccc1)C1ON(C)CCc2cc(OC)c(OC)cc21 (stereo not drawn)	1.68
CC[C@H](C)[C@H]1NC(=O)[C@@H](NC(=O)[C@@H](CC(C)C)N(C)C(=O)[C@@H]2CCCN2C(=O)C(C)=O)[C@@H](C)OC(=O)[C@H](Cc2ccc(OC)cc2)N(C)C(=O)[C@@H]2CCCN2C(=O)[C@H](CC(C)C)NC(=O)[C@H](C(C)C)OC(=O)C[C@@H]1O (Pyruvoyl-P[dNMeL]T[X38][Hiv]LP[NMeY](Me); ester 3-C)	-1.22
COc1cc(S(=O)(=O)Nc2ccc(-c3csc(N4C(=O)CSC4c4cccs4)n3)cc2)ccc1Cl (stereo not drawn)	1.50
CCOC(=O)C(c1c[nH]c2ccccc12)(c1c[nH]c2ccccc12)c1c[nH]c2ccccc12	1.96
